ASSAY_OVERVIEW: in vitro
CONDITION_SUMMARY: human, uninfected RD rhabdomyosarcoma cells, stationary monolayers
ATTRIBUTE_MEASURED: CC50

Consider the compound CC(C)S(=O)(=O)n1c(N)nc2ccc(/C(=N/O)c3ccccc3)cc21 and give its measured CC50.
66 µM

====

Test system: Enterovirus D68 (Fermon strain)
ASSAY_OVERVIEW: CPE inhibition assay
Format: cell-based
CONDITION_SUMMARY: Enterovirus D, RD, read-out: EC50, 50% effective (virus-inhibitory) concentration
ATTRIBUTE_MEASURED: log10(EC50) (log10 of the value in µM)
// stored as log10 of EC50 expressed in µM

Past entries and their recorded results:
INSERT INTO results (query_smiles, target_or_system, readout_value) VALUES
  ('CCOC(=O)c1ccc(OCCC2CCN(c3ccc(C)nn3)CC2)cc1', 'Enterovirus D68 (Fermon strain)', 0.85),
  ('Cc1cc(CCCOc2c(C)cc(-c3noc(C(F)(F)F)n3)cc2C)on1', 'Enterovirus D68 (Fermon strain)', -0.89);

Consider the compound CC(C)S(=O)(=O)n1c(N)nc2ccc(/C(=N/O)c3ccccc3)cc21 and give its measured log10(EC50).
-0.57

CCOC(=O)/C=C/[C@H](C[C@@H]1CCNC1=O)NC(=O)[C@@H](CC(=O)[C@@H](NC(=O)c1cc(C)on1)C(C)C)Cc1ccc(F)cc1 ?
-2.66

NC(=O)c1ncn([C@@H]2O[C@H](CO)[C@@H](O)[C@H]2O)n1 ?
2.17

Nc1cc2nc[nH]c2c(=O)[nH]1 ?
0.83
